Just for reference, patent US4293489A is where these values come from.

- ASSAY: in vivo
- STUDY CONDITIONS: mouse, po, 416 mg/kg
Starred links: 1 amine or outer side, 2 acyl side, 3 side chain; linkers in the order of their positions; H or OH if unused. Positions of bridges follow the written chain, without caps; N, C: chain ends. Non-standard residues stand in square brackets, D forms with d. Residues, ends and D or L forms follow the SMILES beside them. *: point of attachment. Orn(4R-OH,5R-OH) = O=C([C@H](C[C@@H](O)[C@@H](O)N[*:3])N[*:1])[*:2]; hTyr(3S-OH,4S-OH) = N[C@H](C(=O)O)[C@H](O)[C@@H](O)c1ccc(O)cc1; Benzoyl(4-dodecyloxy) = CCCCCCCCCCCCOc1ccc(C(=O)*)cc1; Pro(3S-OH,4S-Me) = C[C@H]1CN[C@H](C(=O)O)[C@H]1O; X3 = CCCCCCCCCCCCCCSc1ccc(C(=O)*)cc1; X1 = CCCCCCCCCCCCSc1ccc(C(=O)*)cc1; Hyp = O=C(O)[C@@H]1C[C@@H](O)CN1
QUANTITY MEASURED: Cmax (ng/mL)
Give the value in ng/mL but do not write ng/mL after it.

## Input // Input: CCCCCCCCCCCCCCSc1ccc(C(=O)N[C@H]2C[C@@H](O)[C@@H](O)NC(=O)[C@@H]3[C@@H](O)[C@@H](C)CN3C(=O)[C@H]([C@@H](C)O)NC(=O)[C@H]([C@H](O)[C@@H](O)c3ccc(O)cc3)NC(=O)[C@@H]3C[C@@H](O)CN3C(=O)[C@H]([C@@H](C)O)NC2=O)cc1 [drawing 188] (X3-[Orn(4R-OH,5R-OH)]T[Hyp][hTyr(3S-OH,4S-OH)]T[Pro(3S-OH,4S-Me)]; lactam 1-C) . Output its Cmax only.
## Output 230000

## Input Please supply the value of reported Cmax for the item CCCCCCCCCCCCOc1ccc(C(=O)N[C@H]2C[C@@H](O)[C@@H](O)NC(=O)[C@@H]3[C@@H](O)[C@@H](C)CN3C(=O)[C@H]([C@@H](C)O)NC(=O)[C@H]([C@H](O)[C@@H](O)c3ccc(O)cc3)NC(=O)[C@@H]3C[C@@H](O)CN3C(=O)[C@H]([C@@H](C)O)NC2=O)cc1 [drawing 183] ({Benzoyl(4-dodecyloxy)}-[Orn(4R-OH,5R-OH)]T[Hyp][hTyr(3S-OH,4S-OH)]T[Pro(3S-OH,4S-Me)]; lactam 1-C)
## Output 5000

## Input # return recorded Cmax for entry CCCCCCCCCCCCSc1ccc(C(=O)N[C@H]2C[C@@H](O)[C@@H](O)NC(=O)[C@@H]3[C@@H](O)[C@@H](C)CN3C(=O)[C@H]([C@@H](C)O)NC(=O)[C@H]([C@H](O)[C@@H](O)c3ccc(O)cc3)NC(=O)[C@@H]3C[C@@H](O)CN3C(=O)[C@H]([C@@H](C)O)NC2=O)cc1 [drawing 187] (X1-[Orn(4R-OH,5R-OH)]T[Hyp][hTyr(3S-OH,4S-OH)]T[Pro(3S-OH,4S-Me)]; lactam 1-C)
## Output 30000
